Decision: logP beneath 2 gives fulfilled; logP meeting or exceeding 2 gives not fulfilled.

Worked examples follow.
[
  {
    "compound": "Nc1cc(N=O)ccc1O",
    "group-label": "fulfilled"
  },
  {
    "compound": "ClC(Cl)(Cl)Cl",
    "group-label": "not fulfilled"
  },
  {
    "compound": "NC(=O)[C@@H]1CCCN1C(=O)[C@H](Cc1cnc[nH]1)NC(=O)[C@@H]1CCC(=O)N1",
    "group-label": "fulfilled"
  },
  {
    "compound": "NS(=O)(=O)c1ccc([N+](=O)[O-])c(C(F)(F)F)c1",
    "group-label": "fulfilled"
  },
  {
    "compound": "CNC(=O)OCc1c2c(n3c1C(OC(C)=O)CC3)C(=O)C=C(OC)C2=O (stereo not given)",
    "group-label": "fulfilled"
  }
]

query: Please determine if `NC(=O)CCCCc1ccccn1` is below 2 in terms of logP.
result: fulfilled

query: Cool, now FCC1CO1 (stereo not given)
result: fulfilled

query: Cool, now CCOC(=O)NC(O)C(Cl)(Cl)Cl (stereo not given)
result: fulfilled

query: Cool, now CCCCCc1cc(OC)c(CC(C)N)cc1OC (stereo not given)
result: not fulfilled

query: Cool, now CCCC(=NOCC)C1C(=O)CC2(CCC(C)C2)OC1=O (stereo not given)
result: not fulfilled

---

Mark no (0) for logP values under 2, and yes (1) for everything at or above.

Worked examples follow.
[
  {
    "molecule": "CCCOP(OCCC)OCCC",
    "group-label": "yes (1)"
  },
  {
    "molecule": "Ic1ccc(I)cc1",
    "group-label": "yes (1)"
  },
  {
    "molecule": "OCCCCc1ccccc1",
    "group-label": "yes (1)"
  },
  {
    "molecule": "BrCCc1ccccc1",
    "group-label": "yes (1)"
  },
  {
    "molecule": "CCCC1CCCc2ncc(C(=O)OC)c(=O)n21 (stereo not given)",
    "group-label": "no (0)"
  }
]

query: Is it the case that `O=C(Nc1ccc(Br)cc1)C(F)(F)F` has logP reaching or exceeding 2?
result: yes (1)

query: Cool, now `Oc1ccc(O)c(Cl)c1`
result: no (0)

query: Cool, now `CCCCCCOc1cccc(NC(=O)OCCN2CCCCC2)c1`
result: yes (1)

query: Cool, now `Cc1ccc(C)c2ccccc12`
result: yes (1)

query: Cool, now `Cc1cccc(NC(N)=O)c1`
result: no (0)

query: Cool, now `COc1ccc(I)cc1Cc1cnc(N)nc1N`
result: yes (1)

query: Cool, now `ON=C1C=CC(=NO)C=C1`
result: no (0)

query: Cool, now `O=C1C=CC(=O)C(Cl)=C1`
result: no (0)

query: Cool, now CC(C)CC(N)C(=O)OCn1ncc2c(=O)[nH]cnc21 (stereo not given)
result: no (0)

---

Listed below: logP values for each entry.
Answer with a number only.

Example compounds with recorded logP:
[
  {
    "compound": "CSc1ccc(COC(=O)N(C)C)cc1",
    "experimental-result": 2.86
  },
  {
    "compound": "CC(=O)Nc1cccc(O)c1",
    "experimental-result": 0.73
  }
]

query: Sample `NS(=O)(=O)c1cc2c(cc1Cl)N=CNS2(=O)=O` — what was its logP?
result: -0.24

query: Cool, now `O=C(c1ccccc1)n1c(=O)[nH]cc(F)c1=O`
result: 0.8

query: Cool, now `c1ccc(SSc2ccccc2)cc1`
result: 4.41

query: Cool, now `CNC(=O)Oc1ccc2c(c1)[C@]1(C)CCN(C)[C@@H]1N2C`
result: 1.58

query: Cool, now `Oc1ccc(Cl)c(Cl)c1`
result: 3.33

query: Cool, now CC(CO)NCc1ccccc1 (stereo not given)
result: 1.28

query: Cool, now `COP(=S)(OC)SCSc1ccc(Cl)cc1`
result: 4.82

query: Cool, now `CC(C)N(N=Nc1ccc(C(N)=O)cc1)C(C)C`
result: 3

query: Cool, now `CCCCCCCCn1cc(C)c(=O)[nH]c1=O`
result: 3.08

query: Cool, now CCCOC1OC(CO)C(O)C(O)C1O (stereo not given)
result: -1.66

query: Cool, now `COc1cccc(C(=O)O)c1`
result: 2.02

query: Cool, now CC1CCC(NC(=O)N(CCCl)N=O)CC1 (stereo not given)
result: 3.3

query: Cool, now `O=c1[nH]c(=O)n([C@H]2C[C@H](O)[C@@H](CO)O2)cc1Br`
result: -0.29

---

endpoint: logP

Example compounds with recorded logP:
[
  {
    "compound": "CCOP(=S)(OCC)Oc1ccc(Cl)cc1Cl",
    "logP": 5.14
  },
  {
    "compound": "O=C1c2ccccc2-c2ccccc21",
    "logP": 3.58
  },
  {
    "compound": "C=CCC1(C(C)CC)C(=O)NC(=O)NC1=O (stereo not given)",
    "logP": 1.47
  }
]

query: Sample `CN1C(=O)CCC1=O` — what was its logP?
result: -0.95

query: Cool, now `Clc1ccc2ncccc2c1`
result: 2.73

query: Cool, now CCCCC(=O)OCC1CCC(n2cnc3c(=O)[nH]cnc32)O1 (stereo not given)
result: 0.65

---

Mark false for logP values under 2, and true for everything at or above.

Worked examples follow.
[
  {
    "compound": "O=C(O)C1c2ccccc2Oc2ccccc21",
    "group-label": "true"
  },
  {
    "compound": "CCN(N=O)C(=O)Nc1ccccc1",
    "group-label": "true"
  },
  {
    "compound": "O=[N+]([O-])c1cccc2cc[nH]c12",
    "group-label": "true"
  },
  {
    "compound": "COc1ccccc1NC(=O)Nc1ccccc1OC",
    "group-label": "true"
  },
  {
    "compound": "O=C(CN1CCCCC1)Nc1cccc([N+](=O)[O-])c1",
    "group-label": "true"
  },
  {
    "compound": "Nc1ccc(Sc2ccc(N)cc2)cc1",
    "group-label": "true"
  },
  {
    "compound": "FC(F)OC(Cl)C(F)(F)F (configuration not stated)",
    "group-label": "true"
  },
  {
    "compound": "CC(=O)N[C@@H](CC(C)C)C(=O)N[C@@H](CC(N)=O)C(N)=O",
    "group-label": "false"
  },
  {
    "compound": "CC1(C)N=C(N)N=C(N)N1c1ccc(F)cc1",
    "group-label": "false"
  },
  {
    "compound": "Brc1ccsc1",
    "group-label": "true"
  }
]

query: Is it the case that `O=C(O)c1ccc(C(F)(F)F)cc1` has logP reaching or exceeding 2?
result: true

query: Cool, now `CCCl`
result: false

query: Cool, now `CCCCCCCCCCNC(=O)c1[nH]nc(C)c1[N+](=O)[O-]`
result: true

query: Cool, now `Nc1nc2[nH]cnc2c(=O)[nH]1`
result: false

query: Cool, now `N#Cc1cnc2ccccc2c1`
result: false

query: Cool, now `O=C(NN1CCCCCC1)NS(=O)(=O)c1ccc(Cl)cc1`
result: false

query: Cool, now `Cc1n[nH]c(C(=O)Nc2ccccc2)c1[N+](=O)[O-]`
result: false

query: Cool, now `COc1ccc2[nH]ccc2c1`
result: true

query: Cool, now Cc1cccc(S(I)=C(N(C)C)N(C)C)c1 (configuration not stated)
result: false

query: Cool, now `CCNc1nc(NC(C)(C)C)nc(SC(F)F)n1`
result: true

query: Cool, now `NNC(=O)c1ccnc(Cc2ccccc2)c1`
result: false

query: Cool, now `CN(C)Cc1cccnc1`
result: false

query: Cool, now `CCN(CC)C(=O)c1cccnc1`
result: false

query: Cool, now `O=C(O)COc1cccc(C(=O)O)c1`
result: false

query: Cool, now `Nc1ccccc1I`
result: true

query: Cool, now `CC(C)N`
result: false

---

Listed below: logP values for each entry.
Answer with a number only.

Example molecules with recorded logP:
[
  {
    "molecule": "CC1OC(OC2CCC3(CO)C4CCC5(C)C(C6=CC(=O)OC6)CCC5(O)C4CCC3(O)C2)C(O)C(O)C1O (stereo unspecified)",
    "logP": -0.62
  },
  {
    "molecule": "O=CNc1ccc(Cl)cc1",
    "logP": 2.04
  },
  {
    "molecule": "CON(C)C(=O)Nc1ccc(N)cc1",
    "logP": -0.16
  },
  {
    "molecule": "NC(=O)C=Cc1ccccc1",
    "logP": 1.43
  },
  {
    "molecule": "CC1=NS(=O)(=O)c2ccc(C(F)(F)F)cc2N1",
    "logP": 1.59
  }
]

query: Sample `CN(N=O)C(=O)Nc1ccccc1` — what was its logP?
result: 1.72

query: Cool, now CC(C)C(C)O (stereo unspecified)
result: 1.28

query: Cool, now `CCCCNc1ccccc1OC`
result: 2.85

query: Cool, now `O=Nc1ccc(O)cc1`
result: 1.29

query: Cool, now `C#CCCC(C)=O`
result: 0.58

query: Cool, now `CCCCCOC(=O)c1cc(O)c(O)c(O)c1`
result: 2.67

query: Cool, now `C=COCC`
result: 1.04

query: Cool, now `Nc1ccc2nc3ccccc3cc2c1`
result: 2.62

query: Cool, now `CCOc1ccc(N)cc1`
result: 1.24

query: Cool, now `Cc1cccc(OCC(=O)NNC(C)C)c1`
result: 1.77

query: Cool, now `O=C(O)Cc1c(Cl)ccc(Cl)c1Cl`
result: 3.2
